B1: SH3 and PX domain-containing protein 2B, residues 155 to 209; numbered along this chain, A1X283 (parent)
chain: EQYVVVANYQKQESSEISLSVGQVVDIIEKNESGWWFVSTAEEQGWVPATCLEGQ

- Variants of: B1
- EXPERIMENT DESCRIPTION: abundance fitness (aPCA) (normalised: wild type 0, dead -1); higher = more abundant; growth selection in yeast, the domain comes from the species named
- CONDITION: Homo sapiens
ASSAY METRIC: abundance fitness

>>> print(df.to_string())
                            monomer_sequence       assay_metric  result
 0  EQYVVVANYQKQESSEISLSVGQVVDIIEKNEYGWWFVSTAEEQGWVPATCLEGQ [S33Y]  abundance fitness  -0.074
 1  EQYVVVANYQKQESSEISLSQGQVVDIIEKNESGWWFVSTAEEQGWVPATCLEGQ [V21Q]  abundance fitness  -0.036
 2  EQYVVVANQQKQESSEISLSVGQVVDIIEKNESGWWFVSTAEEQGWVPATCLEGQ [Y9Q]  abundance fitness  -0.744
 3  EQYVVVANYQKQESSEISLSVGQVVDIIEKNESGWWFVSTAEEQGWVPATDLEGQ [C51D]  abundance fitness  -0.737
 4  EQYVVVANYQTQESSEISLSVGQVVDIIEKNESGWWFVSTAEEQGWVPATCLEGQ [K11T]  abundance fitness  -0.357
 5  EQYVVVANYQKQESSEISLSVGQRVDIIEKNESGWWFVSTAEEQGWVPATCLEGQ [V24R]  abundance fitness  -0.135
 6  EQYVVVAVYQKQESSEISLSVGQVVDIIEKNESGWWFVSTAEEQGWVPATCLEGQ [N8V]  abundance fitness  -0.296
 7  EQYVVVANYQKQESSEISLSVGQVVDIIEKNCSGWWFVSTAEEQGWVPATCLEGQ [E32C]  abundance fitness  -0.152
 8  EQYVVVANYQKQESSEISLSVGQVVDIIEKNESGWWFVSTAEEQGWVPATCLETQ [G54T]  abundance fitness  -0.069
 9  EQYVVVANYQKQESSEISLDVGQVVDIIEKNESGWWFVSTAEEQGWVPATCLEGQ [S20D]  abundance fitness  -0.317
10  EQYVVVANYQKFESSEISLSVGQVVDIIEKNESGWWFVSTAEEQGWVPATCLEGQ [Q12F]  abundance fitness   0.001
11  EQYVVVANYQKQESSEISLSVGQVVDAIEKNESGWWFVSTAEEQGWVPATCLEGQ [I27A]  abundance fitness   0.037
12  EQYVVVANYQKQESSEISLSVGQVVIIIEKNESGWWFVSTAEEQGWVPATCLEGQ [D26I]  abundance fitness  -0.508
13  EQYVVVANYQKQESSEISLGVGQVVDIIEKNESGWWFVSTAEEQGWVPATCLEGQ [S20G]  abundance fitness  -0.239
14  EQYVVVANYQKQESSEISLSVGQVVDIITKNESGWWFVSTAEEQGWVPATCLEGQ [E29T]  abundance fitness  -0.037
15  EQYVVVANYQKQESSEISLSVGQVVDIIEKNESGWWFVSTAEEQGWVPATCLEGH [Q55H]  abundance fitness  -0.004
16  EQYVVVANYQKQESSEISLSVGQVVDIIEKNEKGWWFVSTAEEQGWVPATCLEGQ [S33K]  abundance fitness   0.058
17  EQYVVVANYQKQESSEISLSVGQPVDIIEKNESGWWFVSTAEEQGWVPATCLEGQ [V24P]  abundance fitness  -0.135
18  EQYVVVANYQKQESSEISLSVGQVVDIIEKNESGWWFASTAEEQGWVPATCLEGQ [V38A]  abundance fitness   -0.07
19  EQYVVVANYQKQESSEISLSVGQVVDIIEKKESGWWFVSTAEEQGWVPATCLEGQ [N31K]  abundance fitness  -0.028
20  EQYVVVANYQKQESSEISLSVGQVVDIIEKNESGWWFVGTAEEQGWVPATCLEGQ [S39G]  abundance fitness  -0.107
21  EQQVVVANYQKQESSEISLSVGQVVDIIEKNESGWWFVSTAEEQGWVPATCLEGQ [Y3Q]  abundance fitness   -0.17
22  EQYVVVANYQKQESSEISLSVGQVVDIIEKNESGWGFVSTAEEQGWVPATCLEGQ [W36G]  abundance fitness  -0.767
23  EQYVVVANYQKQESSEISLSVGQVVDIIEKNESGWWFVSTAEEQGWVPATCLEPQ [G54P]  abundance fitness  -0.112
24  EQYVVVANYQKSESSEISLSVGQVVDIIEKNESGWWFVSTAEEQGWVPATCLEGQ [Q12S]  abundance fitness  -0.038
25  EQYVVVANYIKQESSEISLSVGQVVDIIEKNESGWWFVSTAEEQGWVPATCLEGQ [Q10I]  abundance fitness  -0.128
26  EQYVVVANYQKQESSEISLSVGQVVDIREKNESGWWFVSTAEEQGWVPATCLEGQ [I28R]  abundance fitness  -0.211
27  EQYVVVANYQKQESSEISLSVGQVCDIIEKNESGWWFVSTAEEQGWVPATCLEGQ [V25C]  abundance fitness  -0.393
28  ESYVVVANYQKQESSEISLSVGQVVDIIEKNESGWWFVSTAEEQGWVPATCLEGQ [Q2S]  abundance fitness  -0.058
29  EQYVVVANYQKQESSEISLSVGQVVDIIEKNESTWWFVSTAEEQGWVPATCLEGQ [G34T]  abundance fitness  -0.393
30  EQYVVVANYQKQEPSEISLSVGQVVDIIEKNESGWWFVSTAEEQGWVPATCLEGQ [S14P]  abundance fitness  -0.005
31  EEYVVVANYQKQESSEISLSVGQVVDIIEKNESGWWFVSTAEEQGWVPATCLEGQ [Q2E]  abundance fitness  -0.328

Provenance of the data: the Human Domainome abundance scans (Beltran et al. 2025)
